We begin with a simple list: items and their reported inhibition.
Target: D(2) dopamine receptor (Rattus norvegicus) (UniProt P61169)
Sequence (P61169 whole entry): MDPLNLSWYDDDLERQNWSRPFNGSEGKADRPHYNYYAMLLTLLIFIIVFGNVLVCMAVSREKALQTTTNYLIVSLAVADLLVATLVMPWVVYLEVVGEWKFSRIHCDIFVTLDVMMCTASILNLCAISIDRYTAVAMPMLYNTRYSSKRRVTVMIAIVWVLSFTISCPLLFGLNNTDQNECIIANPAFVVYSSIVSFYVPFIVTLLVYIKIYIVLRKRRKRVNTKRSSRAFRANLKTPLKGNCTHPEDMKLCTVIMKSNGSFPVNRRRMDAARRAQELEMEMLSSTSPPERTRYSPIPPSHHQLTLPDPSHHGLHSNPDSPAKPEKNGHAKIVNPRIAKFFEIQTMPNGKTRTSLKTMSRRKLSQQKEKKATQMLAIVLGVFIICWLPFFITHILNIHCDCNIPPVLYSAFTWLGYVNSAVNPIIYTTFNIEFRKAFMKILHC
Assay: In vitro inhibition of [3H]spiperone binding to dopamine receptor D2 from rat brain limbic tissue at 1 uM
Assay type: tissue-based
Conditions: Limbic system
Quick note: give the figure in %, leave out the unit.

Reference set, count: 3
>>> value_observed("Cl.O=C1C2C3CS(=O)(=O)CC3C2C(=O)N1CCCCN1CCN(c2ncccn2)CC1 (centres undefined)")
0
>>> value_observed("Cl.O=C1N(CCCCN2CCN(c3ncccn3)CC2)C(=O)C23C4C=CC(C4)C12C1C=CC3C1 (centres undefined)")
53
>>> value_observed("O=C1C2C3CCC(C4CC43)C2C(=O)N1CCCCN1CCN(c2nccnc2Cl)CC1 (centres undefined)")
75

Query inhibition on D(2) dopamine receptor (Rattus norvegicus) (UniProt P61169) for COc1ccccc1N1CCN(CCCCN2C(=O)C3C4C=CC(C5C=CC54)C3C2=O)CC1.Cl (centres undefined)
100

Query for D(2) dopamine receptor (Rattus norvegicus) (UniProt P61169): what inhibition does the record show for Cl.Cn1nnnc1N1CCN(CCCCN2C(=O)C3C4C=CC(C5CCC45)C3C2=O)CC1 (centres undefined) ?
39

Lab note: need inhibition with D(2) dopamine receptor (Rattus norvegicus) (UniProt P61169) for entry Cl.O=C1C2C3C=CC(C4C=CC43)C2C(=O)N1CCCCN1CCN(c2cnccn2)CC1 (centres undefined) , please look it up.
13

Please state recorded inhibition (tested on D(2) dopamine receptor (Rattus norvegicus) (UniProt P61169)) of Cl.O=C1C2C3CCC(C4CC43)C2C(=O)N1CCCCN1CCN(c2cccc(C(F)(F)F)c2)CC1 (centres undefined)
92

Form field - read-out: inhibition; system: D(2) dopamine receptor (Rattus norvegicus) (UniProt P61169); submitted item: O=C1C2C3C=CC(C3)C2C(=O)N1CCCCN1CCN(c2ccc(Cl)nn2)CC1 (centres undefined)
19

// map O=C1C2C3CS(=O)(=O)CC3C2C(=O)N1CCCCN1CCN(c2nccnc2Cl)CC1 (centres undefined) to recorded inhibition (system: D(2) dopamine receptor (Rattus norvegicus) (UniProt P61169))
0

Item Cl.O=C1C2C3CCCC(CC3)C2C(=O)N1CCCCN1CCN(c2ncccn2)CC1 (centres undefined) with D(2) dopamine receptor (Rattus norvegicus) (UniProt P61169) - inhibition?
74
